Field: NFκB luc, 3750 ng/ml, with x linker. Provide a value for each of the binders that follow.
biological target: human LTBR on cells (human, UniProt P36941 31-435); test: cell-based or functional assay

Lab note: P1AE9459 (antibody, human IgG1, kappa, L234A L235A, V domains shown, human IgG1 PG LALA; from transgenic rabbit immunization) VH: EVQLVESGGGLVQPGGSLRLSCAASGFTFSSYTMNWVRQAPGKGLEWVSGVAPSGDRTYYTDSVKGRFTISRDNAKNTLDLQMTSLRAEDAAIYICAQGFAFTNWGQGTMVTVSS VL: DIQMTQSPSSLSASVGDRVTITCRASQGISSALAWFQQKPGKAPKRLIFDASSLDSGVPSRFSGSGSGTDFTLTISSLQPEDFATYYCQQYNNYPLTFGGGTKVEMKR gave NFκB luc, 3750 ng/ml, with x linker of 45100 RLU

So for P1AF0080 (antibody, human IgG1, kappa, L234A L235A, V domains shown, human IgG1 PG LALA; from transgenic rabbit immunization; also called LTBR (0080)) VH: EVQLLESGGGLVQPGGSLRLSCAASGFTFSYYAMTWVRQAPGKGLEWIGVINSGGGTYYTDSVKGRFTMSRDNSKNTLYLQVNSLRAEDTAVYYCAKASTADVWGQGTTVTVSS VL: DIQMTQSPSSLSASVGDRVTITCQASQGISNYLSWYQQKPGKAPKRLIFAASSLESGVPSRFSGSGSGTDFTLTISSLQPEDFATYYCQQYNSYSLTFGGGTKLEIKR , the logged NFκB luc, 3750 ng/ml, with x linker turned out to be 47100 RLU

binder P1AE9450 (antibody, human IgG1, kappa, L234A L235A, V domains shown, human IgG1 PG LALA; from transgenic rabbit immunization; also called LTBR (9450)) VH: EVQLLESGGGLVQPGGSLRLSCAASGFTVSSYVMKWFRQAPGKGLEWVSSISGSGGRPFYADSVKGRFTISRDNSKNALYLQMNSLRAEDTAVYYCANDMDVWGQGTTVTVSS VL: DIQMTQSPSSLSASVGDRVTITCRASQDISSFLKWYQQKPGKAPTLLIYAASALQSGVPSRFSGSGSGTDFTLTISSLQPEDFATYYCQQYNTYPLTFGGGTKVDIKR , NFκB luc, 3750 ng/ml, with x linker observed: 28900 RLU

These measurements were taken from patent US20250034269A1.
